- system tested: KRAS G12D (Homo sapiens (Human), UniProt P01116+P62937, G12D)
- Sequence (P01116 other isoform, or with tags, fused parts or gaps G12D): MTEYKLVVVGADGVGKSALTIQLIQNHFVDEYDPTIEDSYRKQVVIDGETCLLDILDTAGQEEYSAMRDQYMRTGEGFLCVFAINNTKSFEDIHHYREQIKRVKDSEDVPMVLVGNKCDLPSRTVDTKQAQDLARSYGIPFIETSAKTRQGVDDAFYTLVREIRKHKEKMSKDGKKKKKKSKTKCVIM
- Sequence (P62937 whole entry): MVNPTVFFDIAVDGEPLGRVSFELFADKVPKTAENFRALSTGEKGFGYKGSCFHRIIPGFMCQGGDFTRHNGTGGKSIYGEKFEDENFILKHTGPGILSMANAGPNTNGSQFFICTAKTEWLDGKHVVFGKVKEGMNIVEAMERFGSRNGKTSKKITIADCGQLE
- assay procedure: Ras-Raf disruption/FRET/MOA assay (BRAF RBD, Cyclophilin A)
- Assay type: biochemical
- condition notes: read-out: KRAS G12D FRET IC50
readout type: IC50

molecular string | IC50
CCn1c(-c2cccnc2[C@H](C)OC)c2c3cc(ccc31)-c1csc(n1)C[C@H](NC(=O)[C@H](C(C)C)N(C)C(=O)[C@@H]1OCC[C@@H]1c1ccccc1)C(=O)N1CCC[C@H](N1)C(=O)OCC(C)(C)C2 | 1 to 10 µM

Param item = CCn1c(-c2cccnc2[C@H](C)OC)c2c3cc(ccc31)-c1csc(n1)C[C@H](NC(=O)[C@H](C(C)C)N(C)C(=O)N1CC(C(C)(C)O)C1)C(=O)N1CCC[C@H](N1)C(=O)OCC(C)(C)C2 ; retrieve measured IC50.
0.1 to 1 µM

Suppose we examine the compound CCn1c(-c2cccnc2[C@H](C)OC)c2c3cc(ccc31)-c1cc(O)cc(c1)C[C@H](NC(=O)[C@H](C(C)C)N(C)C(=O)[C@H]1CCN(C(=O)C(C)(C)NC)C1)C(=O)N1CCC[C@H](N1)C(=O)OCC(C)(C)C2 ; what IC50 value has been reported?
0.01 to 0.1 µM

Form field: reported IC50 of CCn1c(-c2cccnc2[C@H](C)OC)c2c3cc(ccc31)-c1cc(O)cc(c1)C[C@H](NC(=O)[C@H](C(C)C)N(C)C(=O)[C@@H]1COC[C@@H]1N)C(=O)N1CCC[C@H](N1)C(=O)OCC(C)(C)C2
0.1 to 1 µM

Need IC50, item CCn1c(-c2cccnc2[C@H](C)OC)c2c3cc(ccc31)-c1csc(n1)C[C@H](NC(=O)[C@H](C(C)C)N(C)C(=O)N1CC[C@]3(CCNC3=O)C1)C(=O)N1CCC[C@H](N1)C(=O)OCC(C)(C)C2
1 to 10 µM

# query: IC50 of entry CCn1c(-c2cc(N3CCN(C)CC3)cnc2[C@H](C)OC)c2c3cc(ccc31)-c1nc(co1)C[C@H](NC(=O)[C@H]1[C@H](C)[C@@H]1C)C(=O)N1CCC[C@H](N1)C(=O)OCC(C)(C)C2
0.01 to 0.1 µM

So what does the record say about IC50 for CCn1c(-c2cccnc2[C@H](C)OC)c2c3cc(ccc31)-c1csc(n1)C[C@H](NC(=O)[C@H](C(C)C)N1CCC3(COC3)C1)C(=O)N1CCC[C@H](N1)C(=O)OCC(C)(C)C2 ?
0.1 to 1 µM

Could you share which IC50 value was measured for CCn1c(-c2cccnc2[C@H](C)OC)c2c3cc(ccc31)-c1cc(CF)cc(c1)C[C@H](NC(=O)[C@H](C(C)C)N(C)C(=O)[C@@H]1OCC[C@@H]1c1ccccc1)C(=O)N1CCC[C@H](N1)C(=O)OCC(C)(C)C2 ?
0.1 to 1 µM

Find the recorded IC50 belonging to CCn1c(-c2cccnc2[C@H](C)OC)c2c3cc(ccc31)-c1csc(n1)C[C@H](NC(=O)[C@H](C(C)C)N(C)C(=O)N1CCOC3(COC3)C1)C(=O)N1CCC[C@H](N1)C(=O)OCC(C)(C)C2 and report it.
0.1 to 1 µM
